- ASSAY_SYSTEM: wild-type human cardiac sodium channel, hNav1.5 (late sodium current) in HEK293 cells (Homo sapiens, UniProt Q14524)
- Sequence (Q14524 whole entry): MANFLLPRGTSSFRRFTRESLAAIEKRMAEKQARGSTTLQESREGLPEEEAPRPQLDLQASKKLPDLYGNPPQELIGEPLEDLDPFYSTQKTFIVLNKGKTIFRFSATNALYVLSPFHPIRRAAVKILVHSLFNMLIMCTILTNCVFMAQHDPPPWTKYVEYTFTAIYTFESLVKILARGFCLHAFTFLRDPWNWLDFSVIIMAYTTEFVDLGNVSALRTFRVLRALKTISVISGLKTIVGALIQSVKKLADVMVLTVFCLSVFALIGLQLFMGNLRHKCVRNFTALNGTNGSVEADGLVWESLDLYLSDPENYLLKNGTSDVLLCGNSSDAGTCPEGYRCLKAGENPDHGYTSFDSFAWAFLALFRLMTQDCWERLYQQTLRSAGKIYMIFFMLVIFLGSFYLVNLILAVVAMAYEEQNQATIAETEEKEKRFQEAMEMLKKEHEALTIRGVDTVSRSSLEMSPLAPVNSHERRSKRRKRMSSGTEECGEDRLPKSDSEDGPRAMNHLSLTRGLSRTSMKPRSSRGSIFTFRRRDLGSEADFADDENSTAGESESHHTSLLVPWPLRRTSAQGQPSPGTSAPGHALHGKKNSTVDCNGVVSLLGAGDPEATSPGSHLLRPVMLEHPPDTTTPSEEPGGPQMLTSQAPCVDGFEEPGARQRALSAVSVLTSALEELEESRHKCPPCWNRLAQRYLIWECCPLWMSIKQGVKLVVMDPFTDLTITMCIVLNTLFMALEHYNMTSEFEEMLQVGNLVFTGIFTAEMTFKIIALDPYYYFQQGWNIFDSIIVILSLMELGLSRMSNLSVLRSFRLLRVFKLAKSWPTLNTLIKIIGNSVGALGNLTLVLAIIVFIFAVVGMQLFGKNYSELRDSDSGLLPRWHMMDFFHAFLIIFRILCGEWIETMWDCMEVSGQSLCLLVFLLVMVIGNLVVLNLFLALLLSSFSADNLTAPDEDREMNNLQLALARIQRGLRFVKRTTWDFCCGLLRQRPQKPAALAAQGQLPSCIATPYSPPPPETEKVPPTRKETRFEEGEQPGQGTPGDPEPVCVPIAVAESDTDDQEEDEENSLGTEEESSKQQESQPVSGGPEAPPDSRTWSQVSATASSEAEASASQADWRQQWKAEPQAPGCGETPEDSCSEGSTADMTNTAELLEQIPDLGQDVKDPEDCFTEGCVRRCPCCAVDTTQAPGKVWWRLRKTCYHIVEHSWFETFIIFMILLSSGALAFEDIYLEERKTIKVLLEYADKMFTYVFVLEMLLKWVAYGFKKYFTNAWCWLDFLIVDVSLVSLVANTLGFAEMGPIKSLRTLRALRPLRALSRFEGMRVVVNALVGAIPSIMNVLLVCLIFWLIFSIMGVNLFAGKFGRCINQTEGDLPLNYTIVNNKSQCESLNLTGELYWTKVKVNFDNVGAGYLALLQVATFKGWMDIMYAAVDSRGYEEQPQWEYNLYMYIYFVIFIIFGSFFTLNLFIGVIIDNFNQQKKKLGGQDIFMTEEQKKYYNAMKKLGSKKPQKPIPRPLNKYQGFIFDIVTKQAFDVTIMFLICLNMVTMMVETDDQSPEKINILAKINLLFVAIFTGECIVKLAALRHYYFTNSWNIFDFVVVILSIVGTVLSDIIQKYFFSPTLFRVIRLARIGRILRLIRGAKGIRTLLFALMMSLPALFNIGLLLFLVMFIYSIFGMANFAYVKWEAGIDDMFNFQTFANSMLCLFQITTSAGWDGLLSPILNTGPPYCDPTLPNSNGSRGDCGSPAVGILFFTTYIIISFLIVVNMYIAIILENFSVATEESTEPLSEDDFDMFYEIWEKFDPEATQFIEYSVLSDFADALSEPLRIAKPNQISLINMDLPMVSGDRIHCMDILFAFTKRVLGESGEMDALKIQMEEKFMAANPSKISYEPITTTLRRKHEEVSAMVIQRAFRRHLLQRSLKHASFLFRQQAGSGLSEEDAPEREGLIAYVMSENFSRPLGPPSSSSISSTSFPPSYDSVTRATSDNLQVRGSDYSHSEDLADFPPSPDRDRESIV
- MEASUREMENT_PROTOCOL: Late INa screening assay (automated whole-cell patch clamp, PatchXpress)
- Format: cell-based
- CONDITION_DETAILS: HEK293, compound at 1 μM; late INa generated with 10 μM Tefluthrin (or 50 nM ATX II); HEK293 hNav1.5; read-out: Late INa 1 μM (percent block of late INa)

{"COMPOUND": "Cc1coc(Cn2nc3ccc(-c4ccc(C(F)(F)F)cc4)cn3c2=O)n1", "READOUT_UNITS": "%", "inhibition at 1 µM": 34.4}
{"COMPOUND": "O=c1n(CCCOc2cnccn2)nc2ccc(-c3ccc(OC(F)(F)F)cc3)cn12", "READOUT_UNITS": "%", "inhibition at 1 µM": 12.2}
{"COMPOUND": "O=c1n(CCOc2ncccn2)nc2ccc(-c3ccc(Oc4ccc(F)cc4)cc3)cn12", "READOUT_UNITS": "%", "inhibition at 1 µM": 58.5}
{"COMPOUND": "O=c1n(CCOc2cccc(Cl)c2)nc2ccc(-c3ccc(OC(F)(F)F)cc3)cn12", "READOUT_UNITS": "%", "inhibition at 1 µM": 20.2}
{"COMPOUND": "Cc1cc(-c2ccc(OC(F)(F)F)cc2)cn2c(=O)[nH]nc12", "READOUT_UNITS": "%", "inhibition at 1 µM": 38.3}
{"COMPOUND": "COc1cccc(CCn2nc3ccc(-c4ccc(OC(F)(F)F)cc4)cn3c2=O)n1", "READOUT_UNITS": "%", "inhibition at 1 µM": 49.7}
{"COMPOUND": "CC(C)(C)c1cnc(Cn2nc3ccc(-c4ccc(C(F)(F)F)cc4)cn3c2=O)o1", "READOUT_UNITS": "%", "inhibition at 1 µM": 18.9}
{"COMPOUND": "Cc1noc(Cn2nc3ccc(-c4ccc(C(=O)c5ccccc5)cc4)cn3c2=O)n1", "READOUT_UNITS": "%", "inhibition at 1 µM": 34.7}
{"COMPOUND": "O=c1n(Cc2cc(-c3ccccn3)on2)nc2ccc(-c3ccc(OC(F)(F)F)cc3)cn12", "READOUT_UNITS": "%", "inhibition at 1 µM": 19.2}
{"COMPOUND": "Cc1nc(-c2cccc(Cn3nc4ccc(-c5ccc(OC(F)(F)F)cc5)cn4c3=O)c2)no1", "READOUT_UNITS": "%", "inhibition at 1 µM": 16.3}
{"COMPOUND": "Cc1coc(Cn2nc3ccc(-c4ccc(OC(F)(F)F)cc4)cn3c2=O)n1", "READOUT_UNITS": "%", "inhibition at 1 µM": 28.9}
{"COMPOUND": "O=c1n(CCCc2ccc(F)c(Br)c2)nc2ccc(-c3ccc(OC(F)(F)F)cc3)cn12", "READOUT_UNITS": "%", "inhibition at 1 µM": 16.7}
{"COMPOUND": "Cc1noc(Cn2nc3ccc(-c4ccc(C(F)(F)F)cc4)cn3c2=O)n1", "READOUT_UNITS": "%", "inhibition at 1 µM": 28.8}
{"COMPOUND": "Cc1noc(Cn2nc3ccc(-c4ccc(Cl)c(F)c4)cn3c2=O)n1", "READOUT_UNITS": "%", "inhibition at 1 µM": 13.9}
{"COMPOUND": "COc1cc(F)ccc1OCC(Cn1nc2ccc(-c3ccc(OC(F)(F)F)cc3)cn2c1=O)OC (centres unmarked)", "READOUT_UNITS": "%", "inhibition at 1 µM": 41.5}
{"COMPOUND": "O=c1n(CCOc2ncc(Cl)cn2)nc2ccc(-c3ccc(OC(F)(F)F)cc3)cn12", "READOUT_UNITS": "%", "inhibition at 1 µM": 35.3}
{"COMPOUND": "Cc1ncc(Cn2nc3ccc(-c4ccc(C(F)(F)F)cc4)cn3c2=O)o1", "READOUT_UNITS": "%", "inhibition at 1 µM": 19.7}
